- TARGET ENTITY: T1, His-human LIGHT (human)
- T1 chain: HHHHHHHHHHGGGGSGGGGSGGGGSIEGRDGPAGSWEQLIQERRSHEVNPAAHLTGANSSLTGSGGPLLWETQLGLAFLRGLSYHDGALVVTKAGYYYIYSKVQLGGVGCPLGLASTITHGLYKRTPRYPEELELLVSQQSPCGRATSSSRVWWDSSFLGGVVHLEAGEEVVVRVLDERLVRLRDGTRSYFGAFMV
- PROCEDURE TEXT: cell-based or functional assay
Documented IC50, LIGHT induced MMP-9 production in BEAS-2B bronchial epithelial cells across a set of binders
Record the value in µg/mL, omitting the unit from your answer.

Please review the following examples before continuing.
>>> measured_value("hum_LT-m37-15 (antibody, human IgG4, V domains shown, humanized from LT-m37) VH: QVQLVQSGAEVKKPGASVKVSCKASGYSFTGYFINWVRQAPGQGLEWIGRIYPYNVDTFYNQNFKGRATMTADKSTSTAYMELSSLRSEDTAVYYCGRGTHYYGSSGAMDYWGQGTLVTVSS VL: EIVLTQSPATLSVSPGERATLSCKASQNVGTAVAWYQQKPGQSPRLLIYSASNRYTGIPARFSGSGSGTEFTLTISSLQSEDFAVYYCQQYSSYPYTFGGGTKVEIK")
0.197
>>> measured_value("hum_LT-m37-16 (antibody, human IgG4, V domains shown, humanized from LT-m37) VH: QVQLVQSGAEVKKPGASVKVSCKASGYSFTGYFINWVRQAPGQGLEWIGRIYPYNVDTFYNQNFKGRVTMTADKSTSTAYMELSSLRSEDTAVYYCGRGTHYYGSSGAMDYWGQGTLVTVSS VL: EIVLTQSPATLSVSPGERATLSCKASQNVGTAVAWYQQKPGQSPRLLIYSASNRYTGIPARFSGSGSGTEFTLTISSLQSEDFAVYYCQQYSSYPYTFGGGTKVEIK")
0.305
>>> measured_value("hum_LT-m37-13 (antibody, human IgG4, V domains shown, humanized from LT-m37) VH: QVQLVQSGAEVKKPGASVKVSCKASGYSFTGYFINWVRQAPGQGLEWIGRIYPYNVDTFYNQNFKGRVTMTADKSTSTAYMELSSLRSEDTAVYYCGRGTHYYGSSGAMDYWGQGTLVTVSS VL: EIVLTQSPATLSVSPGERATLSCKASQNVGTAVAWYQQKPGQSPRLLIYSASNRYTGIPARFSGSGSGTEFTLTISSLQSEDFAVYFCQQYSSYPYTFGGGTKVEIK")
0.358

Kindly review the next binder as well.
Would you kindly share the measured IC50, LIGHT induced MMP-9 production in BEAS-2B bronchial epithelial cells for hum_LT-m37-14 (antibody, human IgG4, V domains shown, humanized from LT-m37) VH: QVQLVQSGAEVKKPGASVKVSCKASGYSFTGYFINWVRQAPGQSLEWIGRIYPYNVDTFYNQNFKGRATLTADKSTSTAYMELSSLRSEDTAVYYCGRGTHYYGSSGAMDYWGQGTLVTVSS VL: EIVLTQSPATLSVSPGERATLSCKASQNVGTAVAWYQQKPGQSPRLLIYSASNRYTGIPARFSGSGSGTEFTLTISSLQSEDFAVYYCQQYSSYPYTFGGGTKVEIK ? 0.352
